System: HTT mRNA
Experiment: Gene panel canonical junction qPCR assay, decrease in CJ mRNA, Table 3
Type: cell-based
Details: decrease in CJ mRNA levels, canonical junction qPCR, gene panel
Method: Compounds described herein were used to modulate RNA transcript abundance in cells. The expression of a target mRNA was measured by detecting the formation of an exon-exon junction in the canonical transcript (CJ). A compound mediated exon-inclusion event was detected by observing an increase in formation of a new junction with an alternative exon (AJ). Real-time qPCR assays were used to detect these splicing switches and interrogate the potency of various compounds towards different target genes. […]
quantity_name: IC50

Cc1cn2cc(NC(=O)c3ccc(N4CCC(NC5CC5)CC4)c4cn(C)nc34)cc(CNS(C)(=O)=O)c2n1 ... > 10 µM
Cc1cn2cc(NC(=O)c3ccc(N4CCC(NC5CC5)CC4)c4cn(C)nc34)nc2c(CCN)n1 ... > 10 µM
COc1nc2c(C(=O)Nc3ccc(=O)n(C)c3)ccc(N3C[C@H](C)N[C@@H](C)C3)c2s1 [Compound 730, 2,2,2-trifluoroacetate] ... > 10 µM

Provide each entry's IC50 from the list below.
1. Cc1cn2cc(NC(=O)c3ccc(N4CCC(NC5CC5)CC4)c4cn(C)nc34)nc2c(CC2CCOC2)n1 (centres unmarked) [Compound 722, 2,2,2-trifluoroacetate]
2. Cc1cn2cc(NC(=O)c3ccc(N4CCC(NC5CC5)CC4)c4cn(C)nc34)nc2c(CCS(C)(=O)=O)n1
3. Cc1cn2cc(NC(=O)c3ccc(N4CCCCC4)c4cn(C)nc34)nc2c(CNS(C)(=O)=O)n1

Result:
> 10 µM
> 10 µM
> 10 µM

Provide each entry's IC50 from the list below.
1. Cc1cn2cc(NC(=O)c3ccc(N4CCC(NC5CC5)CC4)c4c3OCO4)cc(F)c2n1
2. C=CCNC1CCN(c2ccc(C(=O)Nc3cc(CNS(C)(=O)=O)c4nc(C)cn4c3)c3nn(C)cc23)CC1
3. COc1cc2c(N3CCC(NC4CC4)CC3)ccc(C(=O)Nc3cc(CNS(C)(=O)=O)c4nc(C)cn4c3)n2n1
4. COc1nc2c(C(=O)Nc3cn4cc(C)nc(C)c4n3)ccc(N3C[C@H](C)N[C@@H](C)C3)c2s1
5. C[C@H]1CN(c2ccc(C(=O)Nc3cc(F)c4nn(C)cc4c3)c3nc(OCCO)sc23)C[C@H](C)N1

Result:
1: > 10 µM; 2: > 10 µM; 3: > 10 µM; 4: > 10 µM; 5: < 0.1 µM

Provide each entry's IC50 from the list below.
1. C[C@H]1CN(c2ccc(C(=O)Nc3cc(F)c4nn(C)cc4c3)c3sc(OCC4CCNC4)nc23)C[C@H](C)N1 (some centres unmarked) [Compound 797, bis(2,2,2-trifluoroacetate)]
2. COc1nc2c(C(=O)Nc3ccc4nn(C)cc4c3F)ccc(N3C[C@H](C)N[C@@H](C)C3)c2s1 [Compound 727, 2,2,2-trifluoroacetate]
3. CNc1nc2c(C(=O)Nc3cc(F)c4nn(C)cc4c3)ccc(N3C[C@H](C)N[C@@H](C)C3)c2s1

Result:
1. > 10 µM
2. 0.1 to 1 µM
3. 0.1 to 1 µM

###

System: HTT mRNA
Assay: Splicing RT-qPCR assay (THP), Table 2A
Format: cell-based
Conditions: Table 2A (THP), CJ mRNA decrease, read-out: HTT CJ (decrease in canonical junction mRNA, IC50)
Would you mind telling me the reported IC50 of each entry?

CCNC1CCN(c2ccc(C(=O)Nc3cc(CC(=O)O)c4nc(C)cn4c3)c3nn(C)cc23)CC1 ... 0.1 to 1 µM
CNCC1CCCN(c2ccc(C(=O)Nc3cn4cc(C)nc(C)c4n3)c3nn(C)cc23)C1 (stereo not shown) ... > 10 µM

Provide each entry's IC50 from the list below.
1. Cc1cn2cc(NC(=O)c3ccc(C4CNCCO4)c4[nH]cnc34)cc(F)c2n1 (stereo not shown)
2. CCNC1CCN(c2ccc(C(=O)Nc3cc(Oc4ccccn4)c4nc(C)cn4c3)c3nn(C)cc23)CC1
3. CCNC1CCN(c2cc(F)c(C(=O)Nc3cn4c(C)c(C)nc4c(F)c3OC)c3nn(C)cc23)CC1
4. CO[C@H]1C[C@H](N[C@H]2CCN(c3ccc(C(=O)Nc4cc(F)c5nc(C)cn5c4)c4nn(C)cc34)C2)C1
5. Cc1cn2cc(NC(=O)c3ccc(N4CCC(NC5CC5C)CC4)c4cn(C)nc34)cc(F)c2n1 (stereo not shown)

Result:
1: 1 to 10 µM; 2: > 10 µM; 3: > 10 µM; 4: 1 to 10 µM; 5: 0.1 to 1 µM

###

Would you mind telling me the reported IC50 of each entry?
Tested on: MYB mRNA
Experiment: Gene panel canonical junction qPCR assay, decrease in CJ mRNA, Table 3
Assay type: cell-based
Conditions: decrease in CJ mRNA levels, canonical junction qPCR, gene panel
Description: Compounds described herein were used to modulate RNA transcript abundance in cells. The expression of a target mRNA was measured by detecting the formation of an exon-exon junction in the canonical transcript (CJ). A compound mediated exon-inclusion event was detected by observing an increase in formation of a new junction with an alternative exon (AJ). Real-time qPCR assays were used to detect these splicing switches and interrogate the potency of various compounds towards different target genes. […]

Known IC50 results, listed for orientation:
Cc1cn2cc(NC(=O)c3ccc(N4CCC(NC5CC5)CC4)c4cn(C)nc34)nc2c(CNC(N)=O)n1 [Compound 829] ... > 10000 nM
COc1nc2c(C(=O)Nc3ccc(=O)n(C)c3)ccc(N3C[C@H](C)N[C@@H](C)C3)c2s1 [Compound 730, 2,2,2-trifluoroacetate] ... 100 to 1000 nM
COc1nc2c(C(=O)Nc3cn4ccnc4c(F)c3OC)ccc(N3C[C@H](C)N[C@@H](C)C3)c2s1 [Compound 799] ... 1000 to 10000 nM
CCNC1CCN(c2ccc(C(=O)Nc3cc(F)c4nn(C)cc4c3)c3nc(OC)sc23)CC1 [Compound 704, 2,2,2-trifluoroacetate] ... < 100 nM
CCNC1CCN(c2cc(F)c(C(=O)Nc3cn4ccnc4cc3OC)c3nn(C)cc23)CC1 [Compound 701] ... 100 to 1000 nM
COc1nc2c(C(=O)Nc3ccc4c(c3)CCCO4)ccc(N3C[C@H](C)N[C@@H](C)C3)c2s1 [Compound 760] ... > 10000 nM

In the following, a different compound is considered.
Request: Identify the measured IC50 of COc1nc(NC(=O)c2c(F)cc(N3CCC(NC4CC4)CC3)c3nc(C)sc23)cn2cc(C)nc12 [Compound 664] for MYB mRNA.
Result: 1000 to 10000 nM

###

Would you mind telling me the reported pIC50 of each entry?
Tested on: MYB mRNA
Assay: Gene panel canonical junction qPCR assay, decrease in CJ mRNA, Table 3
Assay type: cell-based
Settings: decrease in canonical junction (CJ) mRNA, gene panel qPCR, Table 3
pIC50: −log10 of the molar value.

Known pIC50 results, listed for orientation:
COc1cc2nn(C)cc2cc1NC(=O)c1c(N)cc(N2CCC(NC3CC3)CC2)c2cn(C)nc12 [Compound 450] ... < 5.00
Cc1cn2cc(NC(=O)c3ccc(N4CCC(NC5CC5)CC4)c4ccoc34)cc(F)c2n1 [Compound 191] ... 6.00 to 7.00
COc1c(NC(=O)c2c(F)cc(N3CCC(NC4CC4)CC3)c3cn(C)nc23)cn2cc(C)nc2c1F [Compound 207] ... > 7.00
CN[C@@H]1CN(c2ccc(C(=O)Nc3cc(F)c4nc(C)cn4c3)c3nn(C)cc23)C[C@@H]1C [Compound 108] ... 6.00 to 7.00
Cc1nc2c(F)cc(NC(=O)c3ccc(N4CCC(NC5CC5)CC4)c4cn(C)nc34)cn2c1C [Compound 189] ... < 5.00

Provide each entry's pIC50 from the list below.
1. COCC1(N[C@@H]2CCN(c3ccc(C(=O)Nc4cc(F)c5nc(C)cn5c4)c4nn(C)cc34)C2)CC1 [Compound 119]
2. CCNCC1CN(c2ccc(C(=O)Nc3cn4cc(C)nc(C)c4n3)c3nn(C)cc23)C1 [Compound 494]
3. Cc1cn2cc(NC(=O)c3ccc(N4CCC5(CCCN5)CC4)c4cn(C)nc34)nc2c(C)n1 [Compound 529]
4. CNC1CCN(c2ccc(C(=O)Nc3cn4cc(C)nc(C)c4c3F)c3nn(C)cc23)CC1 [Compound 581]
5. CCNC1CCN(c2ccc(C(=O)Nc3cc(Oc4ccc(C#N)cc4)c4nc(C)cn4c3)c3nn(C)cc23)CC1 [Compound 352]
6. CN[C@@H]1CCN(c2ccc(C(=O)Nc3cc(F)c4nn(C)cc4c3)c3nn(C)cc23)C1 [Compound 140]
7. CCNC1CCN(c2ccc(C(=O)Nc3cn4cc(C)nc(CC)c4n3)c3nn(C)cc23)CC1 [Compound 358]
8. CCNC1CCN(c2ccc(C(=O)Nc3cc(C#N)c4nc(C)cn4c3)c3nn(C)cc23)CC1 [Compound 307]

Result:
1: 6.00 to 7.00; 2: < 5.00; 3: 6.00 to 7.00; 4: 5.00 to 6.00; 5: > 7.00; 6: 6.00 to 7.00; 7: 5.00 to 6.00; 8: 6.00 to 7.00
